Below, each of the compounds is paired with its reported TGI value.
Tested on: HCT-116 colon
Measurement Notes: NCI tumour cell line growth inhibition, 48 h

Compound	Unit Descriptor	Relation Operator	TGI
O=C(c1cc(F)c(Cl)cc1Cl)N1N=C(c2ccccc2)CC1(O)c1ccccc1 (stereo not drawn)	µM	=	21.7
COc1cc(NC(=O)c2cc(OC)c3ccn(C)c3c2)cc2c1C[C@]1(C)CC[C@@H](O)C(C)(C)[C@H]1O2	µM	>	100
Cc1ccc(C(=O)Cc2nc3ncccc3[nH]c2=O)cc1	µM	=	70.4
CC(=O)[CH-]C(=O)c1ccccc1.CC(=O)[CH-]C(=O)c1ccccc1.CC(=O)[CH-]C(=O)c1ccccc1.[Tl+3]	µM	>	100
CC(=O)OC(CC(C)C)P1(=O)N(CC(C)(C)C)[C@@H]2CCCC[C@H]2N1CC(C)(C)C (stereo partly drawn)	µM	=	16.2
CCOC(=O)Cc1csc(/N=C2\NC(=O)/C(=C3\C(=O)N(C)c4ccccc43)S2)n1	µM	=	60.1
C=C1CC[C@@]2(C#N)[C@H]3[C@H](CC[C@@H]2C)[C@@H](C)C[C@@H](CC(C)(C)C#N)[C@H]13	µM	=	11.2
O=C(Nc1ccc(-n2cc(-c3ccncc3)c(-c3ccc(O)c(Cl)c3)n2)cc1)c1cc(Cl)cc(Cl)c1	µM	>	32.5

* * *

System: SF-295 CNS
Measurement Notes: NCI tumour cell line growth inhibition, 48 h
TGI values, listed per item
Metric Name: TGI

Compound	Study System	Value Observed
CN(C)CCCN=C(N)N	SF-295 CNS	> 100 µM
CCOP(=O)(CC1CC(O)(CNc2cc(Cl)nc(N)n2)C1)OCC (configuration not stated)	SF-295 CNS	> 100 µM
FC(F)(F)c1cccc(COCCN2CCN(Cc3cccc(C(F)(F)F)c3)CC2)c1	SF-295 CNS	37.5 µM
OCC(O)C(O)C(O)C1SC(c2ccccc2)=NN1c1ccccc1 (configuration not stated)	SF-295 CNS	> 100 µM
COc1ccc(OC)c(C(=O)/C=C/c2cc(O)c(O)cc2F)c1	SF-295 CNS	9.25 µM
Cc1ccc(S(=O)(=O)NC(=O)NC(Cc2ccccc2)C(=O)O)cc1 (configuration not stated)	SF-295 CNS	> 100 µM
S=c1[nH]c(=S)c2sc(=S)n(-c3ccccc3)c2[nH]1	SF-295 CNS	> 100 µM
NCCCC(=O)Nc1ccncc1	SF-295 CNS	> 100 µM
c1cc2c(cc1C(N1CCNCC1)N1CCNCC1)OCO2	SF-295 CNS	> 100 µM
CC(C)(C)C(=O)Nc1ccccc1I(=O)=O	SF-295 CNS	> 100 µM
COc1ccc(-c2cc(C3CC3)nc(SCC(=O)O)c2C#N)cc1	SF-295 CNS	> 100 µM
CCN1C(=O)N(CC)C2C1NN=c1s/c(=C3\C(=O)N(CC(C)C)c4ccccc43)c(=O)n12 (configuration not stated)	SF-295 CNS	11.4 µM

* * *

Tested on: A549 NSCLC
Measurement Notes: NCI tumour cell line growth inhibition, 48 h
Reported values of TGI for individual entries

Molecule	TGI
c1ccc2[nH]c(SSc3nc4ncncc4[nH]3)nc2c1	> 100 µM
Cc1c(NC(=S)N/N=C\C(=N/NC(=S)Nc2c(C)n(C)n(-c3ccccc3)c2=O)c2ccccc2)c(=O)n(-c2ccccc2)n1C	> 100 µM
CN(C)CCCN=C(N)N	> 100 µM
Clc1ccc(-n2nnc(C3=NCCCN3)c2-c2ccccc2)cc1	> 100 µM
Cc1cccc(/C=N/NC(=S)N2CCCCCC2)n1	17.2 µM
COc1ccc2c(c1)nc(N)c1c3cc(OC)c(OC)cc3cn21	16.6 µM
COc1ccc2c(c1)c(=O)c1c(NCCCN(C)CCCNc3ccc4c(=O)n(CCN(C)C)c(=O)n5c6ccc(OC)cc6c(=O)c3c45)ccc3c(=O)n(CCN(C)C)c(=O)n2c31	1.26 µM
O=[N+]([O-])c1ccc(Sc2c3ccccc3nc3ccccc23)cc1	> 100 µM
O=C1c2n[nH]nc2C(=O)c2n[nH]nc21	> 100 µM
O=C1CCCCCCCC/C=C/CCC(c2ccco2)O1 (stereo unspecified)	> 100 µM
c1nc2cscc2c2cscc12	> 100 µM
